B1: PhoQ; a variant is named by its letters at X, in order, P23837 (parent)
chain: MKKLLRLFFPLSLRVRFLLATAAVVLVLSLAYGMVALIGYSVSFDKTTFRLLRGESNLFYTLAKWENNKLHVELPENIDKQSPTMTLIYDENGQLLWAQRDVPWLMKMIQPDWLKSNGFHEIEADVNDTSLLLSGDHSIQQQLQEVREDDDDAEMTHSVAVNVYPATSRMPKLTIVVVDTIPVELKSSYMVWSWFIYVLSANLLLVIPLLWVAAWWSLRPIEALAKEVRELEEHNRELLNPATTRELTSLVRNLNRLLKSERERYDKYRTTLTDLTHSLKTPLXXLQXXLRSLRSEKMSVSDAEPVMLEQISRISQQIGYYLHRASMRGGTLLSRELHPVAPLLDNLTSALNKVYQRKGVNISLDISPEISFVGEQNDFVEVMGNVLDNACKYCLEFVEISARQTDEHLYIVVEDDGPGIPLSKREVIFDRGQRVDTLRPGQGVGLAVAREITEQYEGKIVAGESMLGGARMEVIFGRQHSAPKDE

- Variants of: B1
- EXPERIMENT: enrichment ratio after two sorts for PhoP signalling (ratio (wild type AVST 3.29)); higher = more functional
- RUN_PARAMETERS: with PhoP (E. coli)
The full ranking holds about 140,000 sequences; the median of “enrichment ratio after two sorts for PhoP signalling” is about 0, and the highest 2% start at about 11. The sample holds the highest values, similar sequences and a random draw of the others, so the mix is not that of the screen.
Decision: enrichment ratio >= 10 yields criterion met, all other cases yield criterion not met.

>>> group_label("SDII")
"criterion met"
>>> group_label("SQAL")
"criterion not met"
>>> group_label("RIAL")
"criterion not met"
>>> group_label("STME")
"criterion not met"
>>> group_label("WVKG")
"criterion not met"
>>> group_label("SKAL")
"criterion met"
>>> group_label("SNAL")
"criterion met"
>>> group_label("SYII")
"criterion not met"
>>> group_label("SKRL")
"criterion not met"
>>> group_label("FSIM")
"criterion met"
>>> group_label("AVYH")
"criterion not met"
>>> group_label("SKNL")
"criterion not met"
>>> group_label("IMSS")
"criterion not met"
>>> group_label("TSAM")
"criterion met"
>>> group_label("YMRM")
"criterion not met"
>>> group_label("SSME")
"criterion met"
>>> group_label("TSWM")
"criterion met"
>>> group_label("SIAL")
"criterion met"
>>> group_label("KSIG")
"criterion not met"
>>> group_label("MMWM")
"criterion not met"
>>> group_label("TTPE")
"criterion not met"
>>> group_label("KSME")
"criterion not met"
